# procedure-summary: Thermo-Gravimetric Analysis (TGA), thermal stability
# setup-conditions: 10° C./min, nitrogen
Structures can show the parent of a compound that is named as a salt.
endpoint: thermal stability up to (TGA)

compound	reported-value
COc1ccc2[nH]cc(CCN(C)C)c2c1.O=C(O)CC(O)C(=O)O [Malate salt, 5-MeO-DMT malate]	around 170 °C
COc1ccc2[nH]cc(CCN(C)C)c2c1.Cl [hydrochloride salt, 5-MeO-DMT hydrochloride]	~235 °C
COc1ccc2[nH]cc(CCN(C)C)c2c1.O=C(O)c1ccccc1 [benzoate salt pattern 2, 5-MeO-DMT benzoate]	~170 °C
COc1ccc2[nH]cc(CCN(C)C)c2c1 [Tartrate salt, 5-MeO-DMT tartrate]	around 170 °C
